protocol-details: EBV LMP1-driven NF-kappaB luciferase reporter inhibitors, primary screen, cell-based, luminescence, single point (AID 504558);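 further: 0% = neutral control wells and 100% = reference inhibitor control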
details: LMP1-induced NF-kappaB luciferase reporter cells, at 12.5 µM
In all, about 350,000 compounds went through this assay and about 2,400 (0.69%) were called active. No stated cut-off is given here; in the data, active means inhibition above about 41%; inconclusive means no clear call, values can overlap the other calls; inactive means below that. Many of the other results were omitted from the sample, so actives are more common in it than they were.
A correct response names exactly one class from 1 for active, 0 for inactive

[
  {
    "compound": "C[C@@H]1CN([C@@H](C)CO)S(=O)(=O)c2ccc(C#Cc3cccc(F)c3)cc2O[C@H]1CN(C)S(=O)(=O)c1cn(C)cn1",
    "label-value": 0
  }
]

### Prompt Field: outcome | Entry: CCc1nnc(NC(=O)c2cc(S(=O)(=O)N3CCCCC3)ccc2C)s1
### Response 0

### Prompt Could you please tell me the result logged for c1c2c(cc3sc(N4CCCCC4)nc13)OCCO2 in this assay?
### Response 1

----------
protocol-details: EBV LMP1-driven NF-kappaB luciferase reporter inhibitors, primary screen, cell-based, luminescence, single point (AID 504558);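 further: 0% = neutral control wells and 100% = reference inhibitor control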
details: LMP1-induced NF-kappaB luciferase reporter cells, at 12.5 µM
The whole screen tested about 350,000 compounds, of which about 2,400 (0.69%) were called active. No stated cut-off is given here; in the data, active means inhibition above about 41%; inconclusive means no clear call, values can overlap the other calls; inactive means below that. Many of the other results were omitted from the sample, so actives are more common in it than they were.
Valid outcomes are listed here; reply with one: active, inactive

Here's what some known entries look like.
[
  {
    "compound": "COc1cc(SC)ccc1C(=O)NNC(=O)C1COc2ccccc2O1 (centres undefined)",
    "label-value": "inactive"
  },
  {
    "compound": "COc1ccc(/C=C/c2noc(-c3ccccc3OC(C)=O)n2)cc1",
    "label-value": "inactive"
  },
  {
    "compound": "CCN1C[C@@H]2[C@@H]3C(=O)N(Cc4ccccc4)C(=O)[C@@H]3[C@](Cc3ccccc3)(C(=O)OC)N2C1=NC1CCCCC1",
    "label-value": "inactive"
  },
  {
    "compound": "O=C(NCc1nnnn1-c1ccc(Cl)cc1)c1ccc2c(c1)OCO2",
    "label-value": "inactive"
  },
  {
    "compound": "O=C1CCC(C(=O)OCC(=O)Nc2ccc(OC(F)F)cc2)=NN1",
    "label-value": "inactive"
  }
]

### Prompt How was Cc1ccc(C(=O)NNC2=Nc3cc([N+](=O)[O-])ccc3OC2)cc1 classified in this test?
### Response inactive

### Prompt Can you look up the reported call for COCC(=O)N(C)C[C@H]1Oc2cc(Br)ccc2S(=O)(=O)N([C@H](C)CO)C[C@H]1C for me?
### Response inactive

### Prompt Entry Cc1cc(C)n(-c2c(F)c(F)c(COC(=O)c3ccccc3)c(F)c2F)n1 : call = ?
### Response inactive

----------
protocol-details: EBV LMP1-driven NF-kappaB luciferase reporter inhibitors, primary screen, cell-based, luminescence, single point (AID 504558);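 further: 0% = neutral control wells and 100% = reference inhibitor control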
details: LMP1-induced NF-kappaB luciferase reporter cells, at 12.5 µM, stronger effect = higher value
About 2,400 (0.69%) of roughly 350,000 compounds were called active. What follows is part of a selection rich in actives, with near analogues and random picks from the rest.
endpoint-label: inhibition (%)
Reply with just the number (in %).

Some entries whose results are on file:
[
  {
    "compound": "Cc1ccc2cccc([N+](=O)[O-])c2n1",
    "inhibition [%]": 7.19
  },
  {
    "compound": "CC1=C(C(=O)N2CCOCC2)CC(CC(=O)NCCN2CCOCC2)C(=O)N1CCC1=CCCCC1 (configuration not stated)",
    "inhibition [%]": 6.89
  },
  {
    "compound": "CCc1nnc(NC(=O)c2ccco2)s1",
    "inhibition [%]": -0.797
  },
  {
    "compound": "CN(C)CCN(C(=O)C1CCCCC1)c1nc2cc3c(cc2s1)OCO3",
    "inhibition [%]": 0.636
  },
  {
    "compound": "O=C(O)c1ccc(N/N=C/c2ccc3ncccc3c2)cc1",
    "inhibition [%]": 44.3
  },
  {
    "compound": "CCc1nnc(NC(=O)c2cc(S(=O)(=O)N3CCN(CC)CC3)ccc2Cl)s1",
    "inhibition [%]": 68.4
  }
]

### Prompt What value of inhibition has been recorded for this entry: COc1ccc(CCNC(=O)CN(c2ccccc2)S(=O)(=O)c2ccccc2)cc1
### Response -10.2

# credit: PubChem BioAssay AID504558
